Overview of recorded Emax for various compounds
biological target: sGC α1/β1 heterodimer (Homo sapiens, UniProt Q02108+Q02153); construct: expressed in transfected cells; experiment: Cell-Based sGC Functional Assay (CASA Assay), cGMP generation in CHO-K1/sGC cells;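 further: reference Compound A is a published heme-dependent sGC activator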; details: maximum cGMP production of Compound A set to 100% activation, read-out: % Act. (percent activation relative to Compound A)
Sequence (Q02108 whole entry): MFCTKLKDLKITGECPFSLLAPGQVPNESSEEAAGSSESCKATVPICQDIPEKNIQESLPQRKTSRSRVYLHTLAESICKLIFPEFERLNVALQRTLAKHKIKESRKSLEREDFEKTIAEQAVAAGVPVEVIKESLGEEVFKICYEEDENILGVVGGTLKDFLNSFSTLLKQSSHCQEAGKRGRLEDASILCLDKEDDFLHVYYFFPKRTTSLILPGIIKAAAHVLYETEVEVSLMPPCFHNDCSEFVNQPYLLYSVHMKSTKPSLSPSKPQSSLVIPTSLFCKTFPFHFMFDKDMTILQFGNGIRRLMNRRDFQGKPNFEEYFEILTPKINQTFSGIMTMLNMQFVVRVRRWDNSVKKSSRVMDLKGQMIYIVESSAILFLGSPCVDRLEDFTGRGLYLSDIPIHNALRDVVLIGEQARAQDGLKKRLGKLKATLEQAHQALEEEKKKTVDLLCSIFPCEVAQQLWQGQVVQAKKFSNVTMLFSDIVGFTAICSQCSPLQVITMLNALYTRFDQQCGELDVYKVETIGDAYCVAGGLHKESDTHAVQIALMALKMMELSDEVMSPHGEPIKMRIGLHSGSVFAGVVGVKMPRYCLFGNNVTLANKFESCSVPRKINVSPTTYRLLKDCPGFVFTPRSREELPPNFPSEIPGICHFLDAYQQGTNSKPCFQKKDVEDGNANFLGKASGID
Sequence (Q02153 whole entry): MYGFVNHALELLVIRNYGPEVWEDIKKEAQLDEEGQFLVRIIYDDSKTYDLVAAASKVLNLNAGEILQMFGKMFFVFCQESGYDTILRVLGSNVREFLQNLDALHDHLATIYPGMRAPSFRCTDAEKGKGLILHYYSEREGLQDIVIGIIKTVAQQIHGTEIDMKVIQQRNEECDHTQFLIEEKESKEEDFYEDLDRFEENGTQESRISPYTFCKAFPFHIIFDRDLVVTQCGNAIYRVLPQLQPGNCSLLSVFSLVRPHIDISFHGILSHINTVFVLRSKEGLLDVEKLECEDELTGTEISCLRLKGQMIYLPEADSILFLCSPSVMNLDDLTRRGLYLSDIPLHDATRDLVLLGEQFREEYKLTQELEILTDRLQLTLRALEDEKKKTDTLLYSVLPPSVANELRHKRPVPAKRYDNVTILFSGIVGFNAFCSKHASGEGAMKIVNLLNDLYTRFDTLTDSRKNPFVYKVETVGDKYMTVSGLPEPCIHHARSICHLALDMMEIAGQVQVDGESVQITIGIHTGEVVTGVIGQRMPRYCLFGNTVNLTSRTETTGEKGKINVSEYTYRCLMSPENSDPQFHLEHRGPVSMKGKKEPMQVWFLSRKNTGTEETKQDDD

Guide cases for Emax, answers given:
Nc1nc(-c2cn3ncnc3c(CCCC(F)(F)F)n2)nc2c1C(c1ccc(F)c(F)c1)(C1CC1)C(=O)N2 (centres unmarked) [Example 32A] ... 144%
CCCCc1nc(-c2nc(O)c3c(n2)NC(=O)C3(C)c2ccc(Cl)cc2)cn2ncnc12 (centres unmarked) [Example 157A] ... 161%
CCCCc1nc(-c2nc(O)c3c(n2)NC(=O)[C@@]3(C)c2ccc(F)cc2)cn2ncnc12 [Example 154A] ... 100%

Observed Emax on sGC α1/β1 heterodimer (Homo sapiens, UniProt Q02108+Q02153) for Nc1nc(-c2cn3ncnc3c(CCCC(F)(F)F)n2)nc2c1C(c1ccc(Cl)cn1)(C1CC1)C(=O)N2 (centres unmarked) [Example 27A] , please. 178%

Observed Emax on sGC α1/β1 heterodimer (Homo sapiens, UniProt Q02108+Q02153) for CCCCc1nc(-c2nc(N)c3c(n2)NC(=O)C3(C)c2ccc(Cl)c(F)c2)cn2ncnc12 (centres unmarked) [Example 62B] , please. 267%
